The origin of these recorded values is patent US12686673B2.

# Test target: HER2 (A775_G776insYVMA) expressing Ba/F3 stable cell line (Homo sapiens, UniProt P04626, DUP772-775, cells depend on it)
# Sequence (P04626 with tags, fused parts or gaps DUP772-775): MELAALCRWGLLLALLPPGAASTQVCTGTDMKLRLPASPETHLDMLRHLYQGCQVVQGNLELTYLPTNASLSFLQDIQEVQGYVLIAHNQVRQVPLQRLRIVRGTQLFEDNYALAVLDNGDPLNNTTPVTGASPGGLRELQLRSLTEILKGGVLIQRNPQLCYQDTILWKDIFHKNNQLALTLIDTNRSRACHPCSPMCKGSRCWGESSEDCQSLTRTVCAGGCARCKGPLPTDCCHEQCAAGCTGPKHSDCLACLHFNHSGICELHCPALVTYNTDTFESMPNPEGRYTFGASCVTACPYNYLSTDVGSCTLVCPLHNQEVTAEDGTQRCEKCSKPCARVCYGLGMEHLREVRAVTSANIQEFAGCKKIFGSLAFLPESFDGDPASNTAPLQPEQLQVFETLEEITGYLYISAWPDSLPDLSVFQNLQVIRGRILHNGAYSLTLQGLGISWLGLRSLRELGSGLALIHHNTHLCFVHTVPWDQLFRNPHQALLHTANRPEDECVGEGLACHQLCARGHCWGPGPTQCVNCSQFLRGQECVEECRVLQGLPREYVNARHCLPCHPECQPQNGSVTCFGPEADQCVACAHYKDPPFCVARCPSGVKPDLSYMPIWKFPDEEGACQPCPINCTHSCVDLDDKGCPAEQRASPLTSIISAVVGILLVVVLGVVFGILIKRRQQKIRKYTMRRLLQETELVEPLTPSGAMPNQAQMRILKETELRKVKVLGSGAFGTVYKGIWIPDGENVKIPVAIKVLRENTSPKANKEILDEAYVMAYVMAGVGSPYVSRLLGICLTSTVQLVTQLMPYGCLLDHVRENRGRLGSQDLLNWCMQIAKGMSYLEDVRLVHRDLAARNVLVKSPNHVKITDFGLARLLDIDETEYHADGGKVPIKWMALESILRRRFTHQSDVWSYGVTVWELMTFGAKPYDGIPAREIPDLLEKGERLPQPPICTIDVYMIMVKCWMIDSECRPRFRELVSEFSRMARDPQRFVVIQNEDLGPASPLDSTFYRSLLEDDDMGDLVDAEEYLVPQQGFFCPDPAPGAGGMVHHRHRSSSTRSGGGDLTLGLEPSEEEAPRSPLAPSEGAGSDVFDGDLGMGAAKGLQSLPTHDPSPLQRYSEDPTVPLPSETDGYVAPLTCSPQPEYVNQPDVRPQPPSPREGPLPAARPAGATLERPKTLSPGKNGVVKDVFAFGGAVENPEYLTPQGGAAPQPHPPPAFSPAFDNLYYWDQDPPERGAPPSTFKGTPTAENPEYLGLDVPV
# Experiment summary: Cellular proliferation (Alamar Blue) assay, HER2 A775_G776insYVMA Ba/F3
# Format: cell-based
# Condition: 72 hr, read-out: YVMA IC50
For each record, write down the corresponding GI50.
Answers are plain numbers, in µM.

Please review the entries below; each comes with its answer.
INSERT INTO results (compound, property_label, value_observed) VALUES
  ('C=CC(=O)Nc1cccc(Oc2nc(Nc3cnn(C)c3)ncc2-c2ccc(OC(F)F)nc2)c1 [Compound 188]', 'GI50', 0.269),
  ('C=CC(=O)Nc1ccc(F)c(Nc2nc(Nc3cnn(CCN(C)C)c3)ncc2-c2ccc(Br)cc2)c1 [Compound 203]', 'GI50', 0.11),
  ('C=CC(=O)Nc1ccc(F)c(Nc2nc(Nc3cn(C)nc3Cl)ncc2-c2ccc(C(F)(F)F)cc2)c1 [Compound 245]', 'GI50', 0.202),
  ('C=CC(=O)Nc1cccc(F)c1CNc1nc(Nc2cnn(C)c2)ncc1Cl [Compound 173]', 'GI50', 2);

Okay, here is my list. What is GI50 for each of these?
1. CN(C)C/C=C/C(=O)Nc1ccc(F)c(Nc2nc(Nc3cnn(C)c3)ncc2-c2ccc(CC(F)(F)F)cc2)c1 [Compound 301]
2. COC/C=C/C(=O)Nc1ccc(F)c(Nc2nc(Nc3cnn(C)c3)ncc2Cl)c1 [Compound 6]

0.187
9.01

----------
# Test target: HER2 (A775_G776insYVMA) expressing Ba/F3 stable cell line (Homo sapiens, UniProt P04626, DUP772-775, cells depend on it)
# Experiment summary: Cellular proliferation (Alamar Blue) assay, HER2 A775_G776insYVMA Ba/F3
# Type: cell-based
# Condition: 72 hr, read-out: YVMA IC50
Counter-ions that a name gives are not always drawn.
Threshold 200 nM. GI50 below it: YES. GI50 at it or above: NO.

Would you please look over these solved cases?
INSERT INTO results (compound, cat) VALUES
  ('C=CC(=O)Nc1cccc(Nc2nc(Nc3cnn(C)c3)ncc2-c2ccc(OC(F)F)cc2)c1 [Compound 142, trifluoroacetate]', 'YES'),
  ('C=CC(=O)Nc1ccc(F)c(Nc2nc(Nc3ccc(CN(C)C)cc3)ncc2-c2ccc(C(F)(F)F)cc2)c1 [Compound 45, trifluoroacetate]', 'YES'),
  ('C=CC(=O)Nc1ccc(F)c(Nc2nc(Nc3cnn(C)c3)ncc2-c2ccc(C)nc2)c1', 'YES');

Consider [2H]C([2H])=CC(=O)Nc1ccc(F)c(Nc2nc(Nc3cnn(C)c3)ncc2-c2ccc(C(F)(F)F)cc2)c1 . Does its GI50 lie strictly below 200 nM?
NO

Consider C=CC(=O)Nc1ccc(F)c(Nc2nc(Nc3cnn(C)c3)ncc2C2CCOC2)c1 (stereo not shown) . Does its GI50 lie strictly below 200 nM?
NO

Consider C=CC(=O)Nc1ccc(F)c(Nc2nc(Nc3ccn(C)n3)ncc2Cl)c1 . Does its GI50 lie strictly below 200 nM?
NO

----------
For each record, write down the corresponding GI50.
# Test target: EGFR (A767_dupASV) expressing Ba/F3 stable cell line (Homo sapiens, UniProt P00533, DUP767-769, cells depend on it)
# Sequence (P00533 with tags, fused parts or gaps DUP767-769): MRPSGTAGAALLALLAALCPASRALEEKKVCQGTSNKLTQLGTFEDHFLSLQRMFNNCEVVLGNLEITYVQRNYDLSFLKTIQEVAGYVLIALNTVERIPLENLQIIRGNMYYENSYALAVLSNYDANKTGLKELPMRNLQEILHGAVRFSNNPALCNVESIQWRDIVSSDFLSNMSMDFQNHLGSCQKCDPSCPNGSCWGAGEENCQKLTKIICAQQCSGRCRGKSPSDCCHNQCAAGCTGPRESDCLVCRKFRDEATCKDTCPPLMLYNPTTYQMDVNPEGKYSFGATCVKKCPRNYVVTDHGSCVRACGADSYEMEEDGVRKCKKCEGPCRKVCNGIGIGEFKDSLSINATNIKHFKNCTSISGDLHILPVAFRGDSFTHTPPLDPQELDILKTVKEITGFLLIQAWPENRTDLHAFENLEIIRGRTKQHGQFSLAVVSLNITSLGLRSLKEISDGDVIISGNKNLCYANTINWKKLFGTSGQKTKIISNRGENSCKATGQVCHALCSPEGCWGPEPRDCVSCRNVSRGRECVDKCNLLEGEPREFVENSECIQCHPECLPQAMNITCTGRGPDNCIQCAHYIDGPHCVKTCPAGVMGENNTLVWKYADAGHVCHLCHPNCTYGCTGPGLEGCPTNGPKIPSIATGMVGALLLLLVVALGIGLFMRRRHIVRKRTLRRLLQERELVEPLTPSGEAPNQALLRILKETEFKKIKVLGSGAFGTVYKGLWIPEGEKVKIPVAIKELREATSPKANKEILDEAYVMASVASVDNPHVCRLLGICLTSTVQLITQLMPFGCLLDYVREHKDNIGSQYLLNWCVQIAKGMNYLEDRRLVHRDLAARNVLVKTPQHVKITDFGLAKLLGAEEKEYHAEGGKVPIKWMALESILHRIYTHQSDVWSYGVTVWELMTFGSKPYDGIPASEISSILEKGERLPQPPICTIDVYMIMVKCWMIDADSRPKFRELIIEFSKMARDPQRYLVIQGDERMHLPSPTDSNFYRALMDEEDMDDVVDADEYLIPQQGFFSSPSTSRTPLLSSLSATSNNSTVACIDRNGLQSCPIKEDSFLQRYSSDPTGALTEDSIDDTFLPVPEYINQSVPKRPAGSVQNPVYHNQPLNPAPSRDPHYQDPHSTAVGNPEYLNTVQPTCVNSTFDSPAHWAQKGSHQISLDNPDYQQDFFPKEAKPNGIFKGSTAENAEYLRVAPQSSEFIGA
# Experiment summary: Cellular proliferation (Alamar Blue) assay, EGFR A767_dupASV Ba/F3
# Assay type: cell-based
# Condition: 72 hr, read-out: A767 IC50
Where a name gives a salt, the structure may show the parent alone.

INSERT INTO measurements (molecule, value_observed) VALUES
  ('C=CC(=O)Nc1ccc(F)c(Nc2nc(Nc3ccc(N(C)C)cc3)ncc2-c2ccc(C(F)(F)F)cc2)c1 [Compound 44, trifluoroacetate]', '> 10000 nM'),
  ('C=CC(=O)Nc1ccc(F)c(Nc2nc(Nc3cnn(C4COC4)c3)ncc2-c2ccc(C(F)(F)F)cc2)c1 [Compound 139]', '125 nM'),
  ('C=CC(=O)Nc1cccc(Oc2nc(Nc3cnn(C)c3)nnc2Cl)c1 [Compound 157]', '> 10000 nM'),
  ('C=C=CC(=O)Nc1ccc(F)c(Nc2nc(Nc3cnn(C)c3)ncc2-c2ccc(C(F)(F)F)cc2)c1 [Compound 251]', '9880 nM'),
  ('C=CC(=O)Nc1ccc(F)c(-c2nc(Nc3cnn(C)c3)ncc2Cl)c1 [Compound 159]', '2780 nM'),
  ('C=CC(=O)Nc1ccc(F)c(Nc2nc(N(C)c3cnn(C)c3)ncc2-c2cc(F)cc(OC)c2)c1 [Compound 305]', '> 10000 nM'),
  ('CN(C)C/C=C/C(=O)Nc1ccc(F)c(Nc2nc(Nc3cnn(C)c3)ncc2-c2ccc(CC(F)(F)F)cc2)c1 [Compound 301]', '68 nM'),
  ('C=CC(=O)Nc1ccc(F)c(Nc2nc(Nc3cnn(C)c3)ncc2-c2ccc(Br)cc2)c1 [Compound 75, trifluoroacetate]', '74 nM');

Okay, here is my list. What is GI50 for each of these?
1. C=CC(=O)Nc1ccc(F)c(Nc2nc(Nc3cnn(C)c3)ncc2C2CCN(C)C2)c1 (stereo not drawn) [Compound 227]
2. C=CC(=O)Nc1cccc(Nc2nc(Nc3cnn(C)c3)ncc2CN(Cc2ccccc2)C(C)=O)c1 [Compound 48]

1: 7090 nM; 2: > 10000 nM

Okay, here is my list. What is GI50 for each of these?
1. C=CC(=O)Nc1ccc(F)c(Nc2nc(NCCN(C)C)ncc2-c2ccc(C(F)(F)F)cc2)c1 [Compound 43, trifluoroacetate]
2. C=CC(=O)Nc1ccc(F)c(Nc2nc(Nc3cnn(C4CCN(C)CC4)c3)ncc2-c2ccc(C(F)(F)F)cc2)c1 [Compound 85]
3. C=CC(=O)Nc1ccc(F)c(Nc2nc(Nc3cnn(C)c3)ncc2-c2cncnc2)c1 [Compound 147, trifluoroacetate]
4. C=CC(=O)Nc1ccc(F)c(Nc2nc(Nc3cccnc3F)ncc2-c2ccc(C(F)(F)F)cc2)c1 [Compound 38]
5. CC(NC(=O)c1cnc(Nc2cnn(C)c2)nc1Nc1cccc(NC(=O)/C=C/CN(C)C)c1)c1ccccc1 (stereo not drawn) [Compound 35]

1: > 10000 nM; 2: 249 nM; 3: 101 nM; 4: 947 nM; 5: > 10000 nM

----------
# Test target: EGFR(D770_N771insSVD) expressing Ba/F3 stable cell line (Homo sapiens, UniProt P00533, DUP768-770, cells depend on it)
# Sequence (P00533 with tags, fused parts or gaps DUP768-770): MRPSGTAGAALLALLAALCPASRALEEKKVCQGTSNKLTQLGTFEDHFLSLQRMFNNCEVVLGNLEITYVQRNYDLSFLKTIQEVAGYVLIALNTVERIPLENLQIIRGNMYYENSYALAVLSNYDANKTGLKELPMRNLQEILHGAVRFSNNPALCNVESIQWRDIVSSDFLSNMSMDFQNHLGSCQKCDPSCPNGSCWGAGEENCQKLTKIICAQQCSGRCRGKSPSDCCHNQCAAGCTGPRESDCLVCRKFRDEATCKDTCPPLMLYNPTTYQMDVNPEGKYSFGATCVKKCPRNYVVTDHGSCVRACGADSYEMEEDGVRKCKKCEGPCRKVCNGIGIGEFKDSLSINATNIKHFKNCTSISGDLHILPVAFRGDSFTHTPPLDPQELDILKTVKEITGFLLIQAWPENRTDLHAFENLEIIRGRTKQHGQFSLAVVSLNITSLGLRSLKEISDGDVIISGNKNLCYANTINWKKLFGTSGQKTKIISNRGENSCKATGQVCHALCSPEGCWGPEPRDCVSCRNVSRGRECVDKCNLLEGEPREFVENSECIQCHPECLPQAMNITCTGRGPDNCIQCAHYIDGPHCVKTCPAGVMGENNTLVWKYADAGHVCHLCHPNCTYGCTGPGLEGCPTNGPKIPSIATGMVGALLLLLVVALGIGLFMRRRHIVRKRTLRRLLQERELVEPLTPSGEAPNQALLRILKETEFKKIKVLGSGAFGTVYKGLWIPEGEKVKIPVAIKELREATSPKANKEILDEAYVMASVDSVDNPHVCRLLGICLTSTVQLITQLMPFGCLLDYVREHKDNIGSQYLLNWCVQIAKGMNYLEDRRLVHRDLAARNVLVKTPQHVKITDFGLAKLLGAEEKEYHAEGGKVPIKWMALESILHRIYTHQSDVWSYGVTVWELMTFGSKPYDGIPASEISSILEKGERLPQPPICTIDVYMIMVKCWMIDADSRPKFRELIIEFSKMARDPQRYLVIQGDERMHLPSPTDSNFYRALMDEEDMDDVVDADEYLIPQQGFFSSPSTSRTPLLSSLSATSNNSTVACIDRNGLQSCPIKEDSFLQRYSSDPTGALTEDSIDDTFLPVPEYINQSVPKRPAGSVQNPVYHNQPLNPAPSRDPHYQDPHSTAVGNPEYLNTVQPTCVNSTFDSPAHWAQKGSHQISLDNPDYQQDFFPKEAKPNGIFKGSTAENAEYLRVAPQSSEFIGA
# Experiment summary: Cellular proliferation (Alamar Blue) assay, EGFR D770_N771insSVD Ba/F3
# Type: cell-based
# Condition: 72 hr, read-out: D770 IC50
Property label: GI50 (nM)
Numbers only, in nM.

INSERT INTO assay_data (compound, property_label, value_observed) VALUES
  ('CN(C)C/C=C/C(=O)Nc1ccc(F)c(Nc2nc(Nc3cnn(C4CCC(O)CC4)c3)ncc2Cl)c1 (stereo not shown)', 'GI50', 5580),
  ('C=CC(=O)Nc1cc(Nc2nc(Nc3cnn(C)c3)ncc2-c2ccc(C(F)(F)F)cc2)ccc1F', 'GI50', 312);

What does the data say about its GI50? Entry: C=CC(=O)Nc1ccc(F)c(Nc2nc(Nc3cnn(C)c3)ncc2-c2ccc3ccoc3c2)c1
99

----------
# Test target: HER2 (A775_G776insYVMA) expressing Ba/F3 stable cell line (Homo sapiens, UniProt P04626, DUP772-775, cells depend on it)
# Experiment summary: Cellular proliferation (Alamar Blue) assay, HER2 A775_G776insYVMA Ba/F3
# Type: cell-based
# Condition: 72 hr, read-out: YVMA IC50
Recorded GI50 determines the label; the label ranges are I (below 200 nM), II (200 nM to below 2000 nM), III (2000 nM or more)

Form field 'band' for C=CC(=O)Nc1ccc(F)c(Nc2nc(Nc3cnn(C)c3)ncc2-c2ccc(OC(F)F)nc2)c1 [Compound 70]
I

Form field 'band' for C=CC(=O)Nc1cccc(Nc2nc(Nc3cnn(C)c3)ncc2-c2ccc(Br)cc2)c1F [Compound 202]
II

Form field 'band' for C=CC(=O)Nc1ccc(F)c(Nc2nc(Nc3cnn(C)c3)ncc2-c2cncc(C(F)(F)F)c2)c1 [Compound 56]
I

Form field 'band' for C=CC(=O)Nc1ccc(F)c(Nc2nc(Nc3cnn(C)c3)ncc2-c2cncc(C)c2)c1 [Compound 67]
I

----------
# System: A431 cells
# Experiment summary: Cellular proliferation (Alamar Blue) assay, A431
# Assay type: cell-based
# Condition: Homo sapiens, A-431; A431 cells, 72 hr, Alamar Blue; read-out: A431 IC50
Property label: IC50
Answer with the number, then the unit.

Please review the entries below; each comes with its answer.
INSERT INTO results (compound, test_target, property_label, value_observed) VALUES
  ('C=CC(=O)Nc1cccc(Nc2nc(Nc3cnn(C)c3)ncc2-c2ccc(Br)cc2)c1F', 'A431 cells', 'IC50', '44 nM'),
  ('C=CC(=O)Nc1ccc(F)c(Nc2nc(Nc3cnn(C)c3)ncc2-c2ccccc2-c2ccccc2)c1', 'A431 cells', 'IC50', '6220 nM'),
  ('C=CC(=O)Nc1ccc(F)c(Nc2nc(Nc3cnn(C)c3)ncc2N2CCCCC2)c1', 'A431 cells', 'IC50', '5610 nM'),
  ('C=CC(=O)Nc1ccc(F)c(Nc2nc(Nc3cn(C)nc3Cl)ncc2-c2ccccc2F)c1', 'A431 cells', 'IC50', '145 nM'),
  ('C=CC(=O)Nc1ccc(F)c(Nc2nc(Nc3cnn(C(C)(C)C#N)c3)ncc2C2=CCOC2)c1', 'A431 cells', 'IC50', '1010 nM'),
  ('C=CC(=O)Nc1ccc(F)c(Nc2nc(Nc3cnn(C)c3)ncc2-c2ccc3[nH]ncc3c2)c1', 'A431 cells', 'IC50', '293 nM');

Would you kindly look at the next entry?
What does the data say about its IC50? Entry: C=CC(=O)Nc1ccc(F)c(Nc2nc(Nc3cnn(C)c3)ncc2C2CCOC2)c1 (stereo not shown)
768 nM
